Target: Inhibitor of nuclear factor kappa-B kinase subunit alpha (Homo sapiens) (UniProt O15111);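 note: mean percent inhibition from GSK PKIS profiling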
Sequence (whole entry): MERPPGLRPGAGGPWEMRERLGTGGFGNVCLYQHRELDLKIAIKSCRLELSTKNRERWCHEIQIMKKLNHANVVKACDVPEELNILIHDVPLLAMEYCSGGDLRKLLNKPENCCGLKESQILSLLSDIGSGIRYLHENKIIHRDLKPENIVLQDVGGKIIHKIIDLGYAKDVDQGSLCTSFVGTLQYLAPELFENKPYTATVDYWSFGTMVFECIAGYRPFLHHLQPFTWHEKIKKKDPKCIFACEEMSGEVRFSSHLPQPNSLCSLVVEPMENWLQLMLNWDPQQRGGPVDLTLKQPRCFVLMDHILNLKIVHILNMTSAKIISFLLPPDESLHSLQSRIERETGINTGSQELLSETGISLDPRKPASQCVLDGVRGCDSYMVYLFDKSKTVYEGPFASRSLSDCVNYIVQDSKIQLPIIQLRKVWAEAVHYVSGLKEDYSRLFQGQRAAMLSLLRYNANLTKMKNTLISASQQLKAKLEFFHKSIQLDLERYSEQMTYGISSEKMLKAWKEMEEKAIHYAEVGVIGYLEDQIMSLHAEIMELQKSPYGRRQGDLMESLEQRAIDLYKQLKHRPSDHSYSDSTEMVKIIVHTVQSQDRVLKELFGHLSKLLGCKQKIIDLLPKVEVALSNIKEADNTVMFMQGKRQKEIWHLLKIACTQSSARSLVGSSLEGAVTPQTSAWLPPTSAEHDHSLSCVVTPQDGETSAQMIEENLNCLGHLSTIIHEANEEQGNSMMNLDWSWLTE
Settings: at 0.1 µM
observation_type: inhibition

smiles_code=COc1cc(C=NNc2ncnc3c2cnn3-c2ccccc2)ccc1O assay_value=10.6%
smiles_code=COc1ccccc1Nc1ncc(-c2ccccc2)o1 assay_value=10.7%
smiles_code=CC(C)=Cc1cccc2c1/C(=N/Nc1ccc(S(N)(=O)=O)cc1)C(=O)N2 assay_value=3.49%
smiles_code=NC(=O)c1cccc(Nc2nccc(Nc3cccc4[nH]ncc34)n2)c1 assay_value=7.29%
smiles_code=CS(=O)(=O)CCNCc1ccc(-c2ccc3ncnc(Nc4ccc(OCc5ccccc5)c(Cl)c4)c3c2)o1 assay_value=-2.26%
smiles_code=COc1cc2ncn(-c3cc(OCc4ccccc4C(F)(F)F)c(C(N)=O)s3)c2cc1OC assay_value=9.42%
smiles_code=CCn1c(-c2nonc2N)nc2cncc(C(=O)N3CC[C@H](N)C3)c21 assay_value=14%
smiles_code=Cc1nn(C)c2cc(N(C)c3ccnc(Nc4cccc(S(N)(=O)=O)c4)n3)ccc12 assay_value=2.21%
smiles_code=Nc1nc(-c2ccccn2)c(-c2ccc3ncccc3n2)s1 assay_value=4.74%
smiles_code=Cc1ccc(NC(=O)c2ccnc(N3CCCC3)c2)cc1-c1ccc(C(=O)NCC2CC2)cc1 assay_value=0.55%
smiles_code=Cc1cccc(-c2n[nH]cc2-c2ccc3ncccc3n2)n1 assay_value=2.07%
smiles_code=c1cnn2ncc(-c3ccnc(Nc4ccc5c(c4)OCCO5)n3)c2c1 assay_value=14.7%
smiles_code=CCn1c(-c2nonc2N)nc2c(N3CCCC3)nccc21 assay_value=8.52%
smiles_code=NC(=O)c1ccc(-c2nc(-c3ccccn3)c(-c3ccc4c(c3)OCO4)[nH]2)cc1 assay_value=7.62%
smiles_code=NCc1ccc(-c2nc(-c3ccc(Cl)c(O)c3)c(-c3ccncc3)[nH]2)cc1 assay_value=3.45%
smiles_code=O=C1NC(=O)C(c2ccccc2Cl)=C1Nc1cccc(O)c1 assay_value=3.36%
smiles_code=COC(=O)Nc1nc2cc(Oc3ccc(NC(=O)Nc4cccc(C(=O)O)c4)cc3)ccc2[nH]1 assay_value=5.47%
smiles_code=O=C(Nc1n[nH]c2nc(-c3ccco3)c(Br)cc12)C1CC1 assay_value=-4.07%
smiles_code=CN(C)c1cc2c(Nc3ccc4nc(Cc5ccccc5)[nH]c4c3)ncnc2cn1 assay_value=9.26%
smiles_code=Nc1nc(-c2ccc3c(c2)C(=Cc2cc(Br)c(O)c(Br)c2)C(=O)N3)cs1 assay_value=9.67%
smiles_code=CC(=O)Nc1cccc(C#Cc2cncnc2Nc2ccc(OCc3cccc(F)c3)c(Cl)c2)n1 assay_value=2.26%

Cited source for all entries: ChEMBL document CHEMBL1961873
